- System tested: hPDE10A2 (Homo sapiens, UniProt Q9Y233)
- Sequence (Q9Y233 267-1055): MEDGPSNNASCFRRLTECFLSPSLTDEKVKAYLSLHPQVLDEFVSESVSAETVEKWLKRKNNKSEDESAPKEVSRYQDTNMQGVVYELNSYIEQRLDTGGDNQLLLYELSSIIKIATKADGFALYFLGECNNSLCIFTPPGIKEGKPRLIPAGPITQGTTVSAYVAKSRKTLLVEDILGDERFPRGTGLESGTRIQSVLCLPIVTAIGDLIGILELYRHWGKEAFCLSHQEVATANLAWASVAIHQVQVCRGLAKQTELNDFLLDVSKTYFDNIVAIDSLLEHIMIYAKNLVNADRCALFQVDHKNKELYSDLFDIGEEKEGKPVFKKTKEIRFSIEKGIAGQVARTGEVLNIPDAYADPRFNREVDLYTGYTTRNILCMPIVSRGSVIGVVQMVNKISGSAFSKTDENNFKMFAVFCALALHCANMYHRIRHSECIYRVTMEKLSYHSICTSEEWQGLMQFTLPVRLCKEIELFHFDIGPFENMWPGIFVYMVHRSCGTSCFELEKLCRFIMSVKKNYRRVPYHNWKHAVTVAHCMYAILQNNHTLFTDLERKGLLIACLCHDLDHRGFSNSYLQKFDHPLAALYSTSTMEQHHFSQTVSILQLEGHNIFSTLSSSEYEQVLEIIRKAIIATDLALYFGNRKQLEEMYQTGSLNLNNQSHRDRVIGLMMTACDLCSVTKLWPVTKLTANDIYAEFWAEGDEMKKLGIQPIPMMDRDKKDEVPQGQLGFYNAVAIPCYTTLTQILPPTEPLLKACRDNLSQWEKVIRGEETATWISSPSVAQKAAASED
- Test description: biochemical
- Assay setup: human clone; 60 nM cAMP substrate; read-out: hPDE10A2 or rPDE10A2 pIC50 (converted)
Observable: IC50 (µM)
Your answer is read as µM, so omit the unit and give the number.

// field: IC50; key: Cc1cc([C@@H](C)N2CC[C@@H](C)[C@H](c3cc(C(F)F)nc4ncnn34)C2)cc(Cl)n1 (single isomer, unassigned) [Compound 5] ; value = 1.51

IC50 reading for Cc1cc(C(C)N2CC[C@@H](C)[C@H](c3cc(C(F)F)nc4ncnn34)C2)cc(C)n1 (single isomer, unassigned) [Compound 1a] : 5.62

====

- System tested: Human recombinant PDE2A (hPDE2A) (Homo sapiens)
- Construct: made in house; host or cells: Sf9 insect cells (baculovirus)
- Sequence (O00408 whole entry): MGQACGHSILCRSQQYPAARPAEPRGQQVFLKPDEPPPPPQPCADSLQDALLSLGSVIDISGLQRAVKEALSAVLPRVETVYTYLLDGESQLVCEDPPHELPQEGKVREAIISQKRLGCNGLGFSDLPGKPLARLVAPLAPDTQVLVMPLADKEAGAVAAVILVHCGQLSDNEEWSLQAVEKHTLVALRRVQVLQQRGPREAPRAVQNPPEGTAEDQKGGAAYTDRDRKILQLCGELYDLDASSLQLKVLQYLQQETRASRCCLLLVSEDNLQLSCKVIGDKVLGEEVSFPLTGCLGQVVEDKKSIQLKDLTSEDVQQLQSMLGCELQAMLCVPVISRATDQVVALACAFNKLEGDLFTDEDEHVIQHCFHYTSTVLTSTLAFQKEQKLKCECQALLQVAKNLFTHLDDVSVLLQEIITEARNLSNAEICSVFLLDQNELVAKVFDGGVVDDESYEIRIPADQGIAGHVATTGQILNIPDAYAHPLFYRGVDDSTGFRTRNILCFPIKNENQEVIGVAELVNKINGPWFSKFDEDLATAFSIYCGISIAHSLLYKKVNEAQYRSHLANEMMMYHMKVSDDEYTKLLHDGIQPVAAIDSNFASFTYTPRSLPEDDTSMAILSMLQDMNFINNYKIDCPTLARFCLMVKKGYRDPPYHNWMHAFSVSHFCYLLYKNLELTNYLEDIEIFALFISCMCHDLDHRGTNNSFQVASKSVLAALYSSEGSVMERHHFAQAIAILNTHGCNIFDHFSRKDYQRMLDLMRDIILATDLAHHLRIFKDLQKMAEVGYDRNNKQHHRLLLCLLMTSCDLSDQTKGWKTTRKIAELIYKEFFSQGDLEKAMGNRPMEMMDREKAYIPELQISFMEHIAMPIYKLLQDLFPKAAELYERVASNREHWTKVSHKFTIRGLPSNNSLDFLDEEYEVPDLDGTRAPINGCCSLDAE
- Test description: In vitro assay PDE2A (SPA, 3H-cGMP)
- Format: biochemical
- Assay setup: hPDE2A pIC50, 10 μM cGMP substrate
Observable: IC50

Previously resolved entries follow.
{"Compound": "COc1ccc(CN2CC[C@@H](C)[C@@H](c3cc(C(F)F)nc4ncnn34)C2)c(OC)c1 [Compound 47]", "IC50": "~3.47 µM"}
{"Compound": "Cc1nn(C)cc1CN1CC[C@@H](C)[C@H](c2cc(C(F)F)nc3ncnn23)C1.Cl [Compound 52]", "IC50": "~2.34 µM"}
{"Compound": "C[C@@H]1CCN(CC2CCOCC2)C[C@H]1c1cc(C(F)F)nc2ncnn12.Cl [Compound 26]", "IC50": "~3.09 µM"}
{"Compound": "C[C@H]1CCN(CC2CCOCC2)C[C@@H]1c1cc(C(F)F)nc2ncnn12.Cl [Compound 27]", "IC50": "~4.9 µM"}

Please examine the following record next.
Record CC(C)CN1CC[C@@H](C)[C@H](c2cc(C(F)F)nc3ncnn23)C1 [Compound 29] . Reported IC50: ~8.71 µM

====

- System tested: Human recombinant PDE2A (hPDE2A) (Homo sapiens)
- Construct: made in house; host or cells: Sf9 insect cells (baculovirus)
- Test description: In vitro assay PDE2A (SPA, 3H-cGMP)
- Assay type: biochemical
- Assay setup: 10 μM cGMP substrate
Observable: Emax (%)
Provide only the numeric value, understood in %.

Examples with answers:
{"Chemical string": "COc1ccc(CN2CC[C@H](C)[C@@H](c3cc(C(F)F)nc4ncnn34)C2)c(OC)c1.Cl", "Observable": "Emax", "Unit of measurement": "%", "Readout number": 9}
{"Chemical string": "C[C@@H]1CCN(Cc2cccc(N3CCCCC3)n2)C[C@H]1c1cc(C(F)F)nc2ncnn12", "Observable": "Emax", "Unit of measurement": "%", "Readout number": 100}

Per the records, this molecule ( "C[C@@H]1CCN(Cc2nccc3ccccc23)C[C@H]1c1cc(C(F)F)nc2ncnn12" ) has Emax equal to 96
